Each item that follows carries a reported growth.
Test system: SF-295 CNS
protocol: NCI-60 one-dose screen, 48 h (100 = growth as untreated, 0 = no growth, -100 = all killed)
run.parameters: 10 µM
This is part of a sample that, as a whole, favours compounds with a hit. Of some 83,000 tested, about 20% had one in any assay.
Output spec: scalar in %, unitless text.

[[record]]
molecule = "COc1cc(/C=C2\\CCCC3=C2N=C2SC(C)=CN2C3c2cc(OC)c(OC)c(OC)c2)cc(OC)c1OC (stereo not given)"
observable = "growth"
value_observed = 2.48

[[record]]
molecule = "O=C1CC(SC(=S)C2CCCC2=O)C(=O)N1 (stereo not given)"
observable = "growth"
value_observed = 104

[[record]]
molecule = "C[C@@H](C[C@H](CCO)c1ccccc1)c1ccc2ccccc2c1"
observable = "growth"
value_observed = -89.2

[[record]]
molecule = "O=C(Nc1cc([N+](=O)[O-])c2[nH]c(=O)c3ccccc3c2c1)C(F)(F)F"
observable = "growth"
value_observed = 80.8

[[record]]
molecule = "C#C[C@]1(O)CCC2C3CCc4cc(OC5CCCC5)ccc4C3CC[C@@]21C (stereo not given in full)"
observable = "growth"
value_observed = 77.2

[[record]]
molecule = "CCOC(=O)c1sc2ncnc(Nc3ccc4c(cnn4C(=O)Nc4ccc(C)c(Cl)c4)c3)c2c1C"
observable = "growth"
value_observed = 102

[[record]]
molecule = "CCC(C)[C@H](NC(C)=O)C(=O)N[C@@H](CCCNC(=N)N)C(=O)N[C@@H](CCCCN)C(=O)N[C@@H](CC1CCC(O)CC1)C(=O)NC(C(=O)N[C@@H](CCSC)C(=O)N[C@@H](CCCNC(=N)N)C(=O)N[C@@]1(C)CCC/C=C\\CCC[C@@](C)(C(=O)NC(C(=O)N[C@@H](CCC(=O)O)C(=O)N[C@@H](CC(C)C)C(=O)N[C@H](C(=O)N[C@@H](CCC(=O)O)C(N)=O)C(C)C)[C@@H](C)O)NC(=O)[C@H](CCC(N)=O)NC(=O)[C@H](CC(C)C)NC(=O)[C@H](CC(C)C)NC1=O)[C@@H](C)O (stereo not given in full)"
observable = "growth"
value_observed = 101

[[record]]
molecule = "COc1cc(/C=C2\\CCCC3C2=Nc2ccccc2NC3c2cc(OC)c(OC)c(OC)c2)cc(OC)c1OC (stereo not given)"
observable = "growth"
value_observed = -10.8


Query (molecule): `O=C(O)c1ccc(-n2cc(CNc3ccc(Cl)cc3)c(-c3ccccc3)n2)cc1` ; field requested: growth 80.5

###

Tested on: OVCAR-4 ovarian
protocol: NCI-60 one-dose screen, 48 h (100 = growth as untreated, 0 = no growth, -100 = all killed)
run.parameters: 10 µM
The panel holds about 83,000 compounds, 20% with a hit somewhere; the sample as a whole holds those more often.
Where growth equals or exceeds 80%, the correct label is Y; where it does not, the label is N.

Before answering, review these 6 worked examples.
[[record]]
compound = "NS(=O)(=O)Oc1ccc(-c2ccc3sccc3c2)cc1"
class_assignment = "Y"

[[record]]
compound = "OCC1OC(n2cnc3c(NCc4ccco4)ncnc32)C(O)C1O (stereo not drawn)"
class_assignment = "N"

[[record]]
compound = "COc1cc(-c2nn(-c3cccc(NC(=O)CN4CCOCC4)c3)cc2-c2cccnc2)ccc1Cl"
class_assignment = "Y"

[[record]]
compound = "Cc1c(Cl)cccc1NC(=O)CN1CCOCC1"
class_assignment = "Y"

[[record]]
compound = "COc1ccc(-c2cc(-c3ccc(Cl)cc3)nc(SCCCC(=O)NO)n2)cc1OC"
class_assignment = "N"

[[record]]
compound = "OC(CCN1CCCC1)(c1ccccc1)C1CCCCC1 (stereo not drawn)"
class_assignment = "Y"


Could you now consider this next compound?
# bool: growth of OC[C@H]1OC([S-])[C@H](O)[C@@H](O)[C@@H]1O.[Au+] (stereo partly drawn) >= 80% Y

###

Entries and their measured growth follow.
Test system: HCT-116 colon
protocol: NCI-60 one-dose screen, 48 h (100 = growth as untreated, 0 = no growth, -100 = all killed)
run.parameters: 10 µM
Compounds without any hit were thinned out: in the full panel of roughly 83,000, 20% have a hit.
Respond with the bare value in %.

// solved cases for growth follow
[[record]]
compound = "CN1CCc2c(sc3nc4n(-c5ccc(Cl)cc5)c(=O)[nH]n4c(=O)c23)C1"
target_or_system = "HCT-116 colon"
observable = "growth"
value_observed = 89.1

[[record]]
compound = "COc1cc(/C=C2\\CCCC3=C2NC(N)=NC3c2cc(OC)c(OC)c(OC)c2)cc(OC)c1OC (stereo not given)"
target_or_system = "HCT-116 colon"
observable = "growth"
value_observed = -81.6

[[record]]
compound = "N#Cc1c(N)nc(-c2cc(F)cc(C(F)(F)F)c2)nc1-c1ccccc1F"
target_or_system = "HCT-116 colon"
observable = "growth"
value_observed = 26.2

[[record]]
compound = "CCOC(=O)CC(S(=O)(=O)c1ccccc1)S(=O)(=O)c1ccccc1"
target_or_system = "HCT-116 colon"
observable = "growth"
value_observed = 102

[[record]]
compound = "Cc1ccc(/C=C/C(=O)C(=O)/C=C/c2ccc(C)cc2)cc1"
target_or_system = "HCT-116 colon"
observable = "growth"
value_observed = -36.8


growth of `IC(I)I` on HCT-116 colon? 106

Consider next the compound `CCn1cc(CNc2ccc(C(=O)Nc3ccc4ccccc4c3)cc2)c(C)n1` in the same way. 40.5

What do you have for `N#Cc1cnn(C(=O)c2nn(-c3ccc(Cl)cc3)cc2O)c1N` ? 6.75

Also `O=C(CNc1nnc(-c2cccnc2SCc2ccccc2)s1)Nc1nc(Cl)cc(Cl)n1` , if possible. 106

Cool, now Nc1nc(Cl)nc2c1ncn2C1O[C@H](CO)[C@@H](O)[C@@H]1F (stereo not given in full) 25.3

Same thing, different compound: `CCn1c(CSc2nc3ccccc3c(=O)n2CCc2ccccc2)n[nH]c1=S` 65.5

Moving on to `CC(C)C[C@H](NC(=O)Cn1cccc(CNC(=O)c2ccccc2)c1=O)B(O)O` 2.43

Continue with `CN1CCc2c(sc3nc4n(-c5ccc(Cl)cc5)cnn4c(=O)c23)C1` 98

Would you kindly repeat that for `CCOC(=O)N/N=C/c1ccc(OC)c(OC)c1` ? 102

`Nc1nc(Cn2c(-c3nonc3N)nc3ccccc32)nc(N2CCCCC2)n1` ? 87.7

###

System: SR leukemia
protocol: NCI-60 one-dose screen, 48 h (100 = growth as untreated, 0 = no growth, -100 = all killed)
run.parameters: 10 µM
This is part of a sample that, as a whole, favours compounds with a hit. Of some 83,000 tested, about 20% had one in any assay.
observable: growth (%)
Use % as the unit, but write only the number.

Below, each entry is followed by its recorded growth result.
[[record]]
compound = "CCOc1ccccc1/C=N\\N=C\\c1ccccc1O"
target_or_system = "SR leukemia"
observable = "growth"
value_observed = 80.6

[[record]]
compound = "COc1cc(C)ccc1Oc1nc(Nc2ccc(N3CCOCC3)cc2)ncc1NC(=O)Nc1cc(C(F)(F)F)cc(C(F)(F)F)c1"
target_or_system = "SR leukemia"
observable = "growth"
value_observed = 28.3

[[record]]
compound = "OC(CCN1CCCC1)(c1ccccc1)C1CCCCC1 (centres undefined)"
target_or_system = "SR leukemia"
observable = "growth"
value_observed = 123


Now examine the next entry.
Can you share its growth? I mean this compound: `C=CCn1c(SCC(=O)Nc2ccc(C(=O)/C=C/c3ccc(OC)cc3)cc2)nnc1-c1ccc(OC)c(OC)c1` 58.7

###

System: SK-OV-3 ovarian
protocol: NCI-60 one-dose screen, 48 h (100 = growth as untreated, 0 = no growth, -100 = all killed)
run.parameters: 10 µM
Compounds without any hit were thinned out: in the full panel of roughly 83,000, 20% have a hit.
observable: growth (%)
Record the value in %, omitting the unit from your answer.

[[record]]
compound = "CCCCCC(=O)O[C@]1(C(C)=O)CCC2C3CCC4=CC(=O)CC[C@]4(C)C3CC[C@@]21C (stereo partly specified)"
target_or_system = "SK-OV-3 ovarian"
unit_of_measure = "%"
value_observed = 64.3

[[record]]
compound = "CCOC(=O)c1cc(C(=O)c2ccc(OC)c(OC)c2)n2ccncc12"
target_or_system = "SK-OV-3 ovarian"
unit_of_measure = "%"
value_observed = 64.2

[[record]]
compound = "CC1OC2CC(=O)OC2C2=C1C(=O)c1c(O)c3c(c(O)c1C2=O)C1CC(O)C3(O)C(C)O1 (stereo unspecified)"
target_or_system = "SK-OV-3 ovarian"
unit_of_measure = "%"
value_observed = 8.13

[[record]]
compound = "O=C1/C=C/[C@@H](O)[C@@H]2C[C@@H](O)C[C@H]2/C=C/CCC[C@H](CCc2ccc(NC(=S)Nc3ccc4c(c3)C(=O)OC43c4ccc(O)cc4Oc4cc(O)ccc43)cc2)O1"
target_or_system = "SK-OV-3 ovarian"
unit_of_measure = "%"
value_observed = 32.1

[[record]]
compound = "COc1cc2c(Nc3ccc(-c4ccc(N)cc4)cc3)ncnc2c(OC)c1OC"
target_or_system = "SK-OV-3 ovarian"
unit_of_measure = "%"
value_observed = 36.1


Consider the record given below.
Consider the compound shown here: `CCOc1ccccc1/C=N/N1CCCCCC1` What is its recorded growth? 95.9
